subjectOfTest: UniProtKB P22460
Sequence (P22460 whole entry): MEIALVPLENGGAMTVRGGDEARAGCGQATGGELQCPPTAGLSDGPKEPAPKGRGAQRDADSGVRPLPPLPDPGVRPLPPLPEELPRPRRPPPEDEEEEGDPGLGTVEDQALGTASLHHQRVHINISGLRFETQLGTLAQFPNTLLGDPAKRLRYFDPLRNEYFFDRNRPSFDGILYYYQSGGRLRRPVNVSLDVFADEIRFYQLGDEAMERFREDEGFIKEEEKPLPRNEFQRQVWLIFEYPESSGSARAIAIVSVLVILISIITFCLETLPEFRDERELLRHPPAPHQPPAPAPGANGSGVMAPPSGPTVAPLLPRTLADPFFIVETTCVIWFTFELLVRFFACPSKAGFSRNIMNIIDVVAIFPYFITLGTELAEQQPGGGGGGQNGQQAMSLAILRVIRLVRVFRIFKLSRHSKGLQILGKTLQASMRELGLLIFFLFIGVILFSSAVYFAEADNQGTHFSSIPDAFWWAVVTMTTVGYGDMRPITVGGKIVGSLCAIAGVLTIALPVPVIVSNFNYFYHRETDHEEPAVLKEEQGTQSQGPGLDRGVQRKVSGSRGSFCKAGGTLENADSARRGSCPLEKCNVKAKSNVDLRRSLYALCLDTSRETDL
testDetails: Inhibition of recombinant human Kv1.5 expressed in CHO cells by IonWork high-throughput electrophysiology assay
Format: cell-based
Parameter: IC50. Scope: all listed entries.

| smilesRepr | IC50 |
| --- | --- |
| CCCN(CC)[C@H](c1ccccn1)[C@@H](c1ccccn1)N(CC)CCC | 3.2 µM |
| CCCN(CCC)[C@H](c1ccccn1)[C@@H](c1ccccn1)N(CCOC)C[C@H](C)O | 2.7 µM |
| CCCN(CC)[C@@H](c1ccccn1)[C@H](c1cccc(C#N)c1)N(CCOC)C[C@@H](C)CO | 7.3 µM |
| CCCN(CC)[C@H](c1ccccn1)[C@@H](c1cccc(C#N)c1)N(CCOC)C[C@H](C)CO | 4.8 µM |
| CCCN(CCC)[C@H](c1ccccn1)[C@@H](c1ccccn1)N(CCC)C[C@H](O)CO | 1.7 µM |
